Species: Rattus norvegicus
Measurement notes: Open TG-GATES - Regimen: Single
Format: toxicity, organism-based, Sprague-Dawley
Set-up: regimen Single, gender Male, age 6 weeks
Condition context: in vivo, po, 10 mg/kg, 6 h, tissue Blood, route gavage, dose level Low
Metric name: PT (s)
Numbers only, in s.

Look up PT for the entries below, preserving their order.
1. CN(C)CCCN1c2ccccc2CCc2ccccc21 [IMIPRAMINE]
2. CN(C)CCN(Cc1cccs1)c1ccccn1

1: 15.8; 2: 17.1

Look up PT for the entries below, preserving their order.
1. CN(C)CCCN1c2ccccc2CCc2ccc(Cl)cc21 [CLOMIPRAMINE]
2. CC1=C(/C=C/C(C)=C/C=C/C(C)=C/CO)C(C)(C)CCC1 [RETINOL]

13.6
15.6

Where these numbers come from: ChEMBL document CHEMBL3885861
